ASSAY SYSTEM: RBP4-TTR interaction (Homo sapiens (Human))
PROTOCOL: TR-FRET (HTRF) assay for retinol-induced RBP4-TTR interaction
CONDITION INFO: in the presence of 1 μM retinol; read-out: HTRF assay for antagonists of RBP4-TTR interaction: IC50
Counter-ions that a name gives are not always drawn.
READOUT KIND: pIC50
For clarity, pIC50 is expressed as the negative log10 of concentration in mol/L.

Solved cases (6 shown):
{"MOLECULE": "CC(=O)N1CCc2c(C(=O)N3CCC(c4cc(F)ccc4Cl)CC3)n[nH]c2C1 [Compound 143]", "pIC50": 7.28}
{"MOLECULE": "O=C(c1n[nH]c2c1CN(C1COC1)CC2)N1CCC(c2cccc(F)c2C(F)(F)F)CC1 [Compound 74]", "pIC50": 7.55}
{"MOLECULE": "O=C(c1n[nH]c2c1CN(C1COC1)CC2)N1CCC(c2ccc(F)c(F)c2C(F)(F)F)CC1 [Compound 89]", "pIC50": 7.48}
{"MOLECULE": "O=C(c1n[nH]c2c1CNCC2)N1CCC(c2cccc(F)c2Cl)CC1 [Compound 42, Hydrochloride]", "pIC50": 6.10}
{"MOLECULE": "CC(=O)N1CCc2c(C(=O)N3CCC(c4cc(F)ccc4C(F)(F)F)CC3)n[nH]c2C1 [Compound 140]", "pIC50": 7.66}
{"MOLECULE": "O=C(c1n[nH]c2c1CN(C(=O)N1CCCC1)C2)N1CCC(c2ccc(F)c(F)c2C(F)(F)F)CC1 [Compound 106]", "pIC50": 7.53}

Query string: # returns recorded pIC50 (system: RBP4-TTR interaction (Homo sapiens (Human))) for COCCN1Cc2[nH]nc(C(=O)N3CCC(c4ccc(F)c(F)c4C(F)(F)F)CC3)c2C1 [Compound 109]
Result string: 7.38

Query string: # returns recorded pIC50 (system: RBP4-TTR interaction (Homo sapiens (Human))) for CNC(=O)N1CCc2[nH]nc(C(=O)N3CCC(c4ccc(F)c(F)c4C(F)(F)F)CC3)c2C1 [Compound 92]
Result string: 7.12

Query string: # returns recorded pIC50 (system: RBP4-TTR interaction (Homo sapiens (Human))) for CC(C)CC(=O)N1Cc2[nH]nc(C(=O)N3CCC(c4ccc(F)c(F)c4C(F)(F)F)CC3)c2C1 [Compound 86]
Result string: 7.56

Query string: # returns recorded pIC50 (system: RBP4-TTR interaction (Homo sapiens (Human))) for O=C(c1n[nH]c2c1CN(CC1CC1)CC2)N1CCC(c2cccc(F)c2Cl)CC1 [Compound 164]
Result string: 7.13

Query string: # returns recorded pIC50 (system: RBP4-TTR interaction (Homo sapiens (Human))) for COC(=O)N1CCc2[nH]nc(C(=O)N3CCC(c4cc(F)cc(F)c4C(F)(F)F)CC3)c2C1 [Compound 138]
Result string: 7.61

Query string: # returns recorded pIC50 (system: RBP4-TTR interaction (Homo sapiens (Human))) for CC(=O)N1CCc2c(C(=O)N3CCC(c4cccc(F)c4C(F)(F)F)CC3)n[nH]c2C1 [Compound 63]
Result string: 7.80

Query string: # returns recorded pIC50 (system: RBP4-TTR interaction (Homo sapiens (Human))) for CCC(=O)N1CCc2c(C(=O)N3CCC(c4ccc(F)c(F)c4C(F)(F)F)CC3)n[nH]c2C1 [Compound 122]
Result string: 7.56

Query string: # returns recorded pIC50 (system: RBP4-TTR interaction (Homo sapiens (Human))) for CC(=O)N1CCc2c(C(=O)N3CCC(c4cc(C(F)(F)F)cc(C(F)(F)F)c4)CC3)n[nH]c2C1 [Compound 153]
Result string: 6.08

Query string: # returns recorded pIC50 (system: RBP4-TTR interaction (Homo sapiens (Human))) for O=C(c1n[nH]c2c1CN(C1COC1)CC2)N1CCC(c2cccc(F)c2Cl)CC1 [Compound 165]
Result string: 7.19

Query string: # returns recorded pIC50 (system: RBP4-TTR interaction (Homo sapiens (Human))) for O=C(c1n[nH]c2c1CN(CCC(F)(F)F)CC2)N1CCC(c2cccc(F)c2Cl)CC1 [Compound 167]
Result string: 7.31
